// provenance: paper PMC10397247

Molecular target: T1, 4H477-bN
T1 chain: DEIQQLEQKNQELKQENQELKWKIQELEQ
Test: two-hybrid library CCNG1;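 note: natural log of median RNA to DNA barcode read ratio; higher means stronger binding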
Some binders, each annotated with its measured interaction score.
Respond numerically, and do not add a unit to the figure.

Example cases with answers are listed next.
1) DKIQQLEQKNQELKQEIQELEWKNQELEQ [4H2503-bN] :: -0.639
2) DEIQQLEQEIQELKQKNQELKWEIQELEQ [4H121-bN] :: -1.35
3) DKIQELKKEIEELERENWELKKEIQELER [4H2585-bH] :: -0.435

Kindly review the next binder as well.
Please supply the value of reported interaction score for the item DKIQQLKQKIQELEQENQELEWKNQELEQ [4H2839-bN]
-1.55
